- Tested on: BDF1 mice, P388 leukemia ip, median survival T/C
- Protocol Notes: NCI In Vivo Anticancer Drug Screen. Data for tumor model P388 Leukemia (intraperitoneal) in B6D2F1 (BDF1) mice
- Protocol Conditions: endpoint: median survival time; dose: 3.12 mg/kg/injection; schedule: Q01DX009 (ip); vehicle: saline with Tween-80; higher = longer survival
Toxic doses and inconclusive results are not listed.
In this section, each of the compounds is paired with its reported T/C.

- Compound: "O=C1N(Cl)C(=O)C(c2ccc(C(F)(F)F)cc2)(c2ccc(C(F)(F)F)cc2)N1Cl"
  T/C: "100 % of control"

Ask: Suppose we examine the compound O=C(CC(c1ccccc1)c1c(O)c2ccccc2oc1=O)c1ccccc1 (centres undefined) ; what T/C value has been reported?
Reply: 90 % of control

Ask: Now consider C#CCOc1ccccc1/C(Cl)=N/Nc1ccc([N+](=O)[O-])cc1[N+](=O)[O-] and answer again.
Reply: 97 % of control

Ask: Now consider CC(C)(C)OC(=O)NOc1ccc([N+](=O)[O-])cc1[N+](=O)[O-] and answer again.
Reply: 117 % of control

Ask: Now consider CN1CCN(C(=O)c2ccc(Cl)c(Cl)c2)CC1 and answer again.
Reply: 103 % of control

Ask: Now consider OC(Cc1ccc2ccccc2n1)C(Cl)(Cl)Cl (centres undefined) and answer again.
Reply: 95 % of control

Ask: Now consider N#CC(C#N)=C1SCS1 and answer again.
Reply: 123 % of control

Ask: Now consider ON=C1CSSC1 and answer again.
Reply: 109 % of control

Ask: Now consider O=C1c2ccccc2C(=O)c2c(O)c3c(c(O)c21)CC=CC3 and answer again.
Reply: 107 % of control

* * *

- System: BDF1 mice, P388 leukemia ip, median survival T/C
- Protocol Notes: NCI In Vivo Anticancer Drug Screen. Data for tumor model P388 Leukemia (intraperitoneal) in B6D2F1 (BDF1) mice
- Protocol Conditions: endpoint: median survival time; dose: 50.0 mg/kg/injection; schedule: Q04DX003 (ip); vehicle: saline sonified
Toxic doses and inconclusive results are not listed. The calls were made as follows: active = survival T/C of 150% or more; inactive = T/C below 125% in these data.
The reply should name one outcome from Y for active, N for inactive

The examples below pair each entry with its known result.
- Given Smiles: "O=C(O)c1c(Cl)c(Cl)c(Cl)c(Cl)c1C(=O)O.O=C(O)c1c(Cl)c(Cl)c(Cl)c(Cl)c1C(=O)O.[Pt]"
  Discrete Label: "N"
- Given Smiles: "CCOc1cc(/C=N\\Nc2nnc(C)n2N)c(C)cc1N(CCCl)CCCl"
  Discrete Label: "Y"
- Given Smiles: "O=C1C=Cc2cccc3cccc1c23"
  Discrete Label: "N"
- Given Smiles: "CCOC(=O)CCOc1ccccc1N(CCCl)CCCl"
  Discrete Label: "Y"
- Given Smiles: "C/C(=N\\O)c1ccc2ccc3ccccc3c2c1"
  Discrete Label: "N"

Ask: Just curious, what result did C[N+](C)(CC(=O)Nc1ccc(Cl)c(C(F)(F)F)c1)Cc1ccc(Cl)cc1 get here?
Reply: N

Ask: Now consider Oc1ccccc1C=Nc1ccccc1.Oc1ccccc1C=Nc1ccccc1.[Ni+2] and answer again.
Reply: N

* * *

In this section, each of the molecules is paired with its reported T/C.
- System: BDF1 mice, P388 leukemia ip, median survival T/C
- Protocol Notes: NCI In Vivo Anticancer Drug Screen. Data for tumor model P388 Leukemia (intraperitoneal) in B6D2F1 (BDF1) mice
- Protocol Conditions: endpoint: median survival time; dose: 6.25 mg/kg/injection; schedule: Q01DX009 (ip); vehicle: saline; higher = longer survival
Toxic doses and inconclusive results are not listed.

These solved cases illustrate the format of a correct answer.
- Molecule: "CCN(CC)C(N)=Nc1ccc(NC(=O)c2ccc(C(=O)Nc3ccc(N=C(N)N(CC)CC)cc3)cc2)cc1"
  Value Measured: "196 % of control"
- Molecule: "CC1C[N+](C)=C2CCCCC2=C1N (stereo not drawn)"
  Value Measured: "95 % of control"
- Molecule: "C=CCOP(=O)(N1CC1C)N1CC1C (stereo not drawn)"
  Value Measured: "106 % of control"
- Molecule: "NNC(=O)C1CC1"
  Value Measured: "96 % of control"
- Molecule: "CN(CCO)/N=N/c1nc[nH]c1C(N)=O"
  Value Measured: "100 % of control"

Ask: Suppose we examine the molecule CC(=O)[O][Hg][c]1c(N)c(C)cc(C)c1F ; what T/C value has been reported?
Reply: 95 % of control

Ask: Now consider COc1cc2ccc3c(c2cc1OC)C=NCC3 and answer again.
Reply: 110 % of control

Ask: Now consider CCC[CH2][Hg][O]C(C)=O and answer again.
Reply: 114 % of control
